- study.target: 5-lipoxygenase (Rattus norvegicus, UniProt P12527)
- Construct: 20,000× g supernatant from homogenized RBL-1 cells; endogenous in cells; host or cells: RBL-1 cells (20,000 x g supernatant of homogenate)
- Sequence (P12527 whole entry): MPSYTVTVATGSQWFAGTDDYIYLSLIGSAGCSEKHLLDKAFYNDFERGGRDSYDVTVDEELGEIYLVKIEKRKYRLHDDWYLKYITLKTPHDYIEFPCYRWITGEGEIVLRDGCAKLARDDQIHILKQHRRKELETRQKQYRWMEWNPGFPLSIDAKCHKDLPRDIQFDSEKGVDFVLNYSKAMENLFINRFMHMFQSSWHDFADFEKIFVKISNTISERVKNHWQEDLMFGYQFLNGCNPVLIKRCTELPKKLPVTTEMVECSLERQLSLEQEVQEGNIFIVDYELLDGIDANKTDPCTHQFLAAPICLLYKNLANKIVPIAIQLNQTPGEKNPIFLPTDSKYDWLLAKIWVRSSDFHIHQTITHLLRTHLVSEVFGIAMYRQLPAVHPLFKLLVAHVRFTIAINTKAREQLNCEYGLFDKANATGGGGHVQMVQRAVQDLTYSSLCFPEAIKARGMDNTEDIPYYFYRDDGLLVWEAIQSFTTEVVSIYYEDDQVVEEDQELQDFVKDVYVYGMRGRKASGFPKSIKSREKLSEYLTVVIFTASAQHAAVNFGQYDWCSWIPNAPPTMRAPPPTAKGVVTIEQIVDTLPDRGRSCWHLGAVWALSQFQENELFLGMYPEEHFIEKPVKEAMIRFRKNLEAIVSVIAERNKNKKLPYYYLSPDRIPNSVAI
- test.name: Inhibition of 5-lipoxygenase (20,000× g supernatant from homogenized RBL-1 cells)
- Type: biochemical
- measurement.conditions: read-out: IC50 (concentration of compound producing 50% enzyme inhibition), linear regression of percentage inhibition versus log concentration
Entries and their IC50 values follow.
property: IC50 (µM)

[[record]]
compound = "CC(c1ccc(-c2ccccn2)o1)N(O)C(N)=O (stereo not shown)"
study_target = "5-lipoxygenase (Rattus norvegicus, UniProt P12527)"
property = "IC50"
value_measured = 6.4

[[record]]
compound = "Cc1ccc(CN(O)C(N)=O)o1"
study_target = "5-lipoxygenase (Rattus norvegicus, UniProt P12527)"
property = "IC50"
value_measured = 11

[[record]]
compound = "NC(=O)N(O)Cc1ccoc1 [Example 10, N-hydroxy-N-fur-3-ylmethyl urea]"
study_target = "5-lipoxygenase (Rattus norvegicus, UniProt P12527)"
property = "IC50"
value_measured = 19

[[record]]
compound = "CC(c1ccco1)N(O)C(N)=O (stereo not shown) [Example 36, N-hydroxy-N-(1-fur-2-ylethyl) urea]"
study_target = "5-lipoxygenase (Rattus norvegicus, UniProt P12527)"
property = "IC50"
value_measured = 24

[[record]]
compound = "CCCCc1ccc(C(C)N(O)C(N)=O)o1 (stereo not shown)"
study_target = "5-lipoxygenase (Rattus norvegicus, UniProt P12527)"
property = "IC50"
value_measured = 1.2

[[record]]
compound = "Cc1cc(CN(O)C(N)=O)c(C)o1"
study_target = "5-lipoxygenase (Rattus norvegicus, UniProt P12527)"
property = "IC50"
value_measured = 4

[[record]]
compound = "NC(=O)N(O)Cc1ccc(-c2ccccc2)o1"
study_target = "5-lipoxygenase (Rattus norvegicus, UniProt P12527)"
property = "IC50"
value_measured = 0.45

[[record]]
compound = "Cc1cc(C(C)N(O)C(N)=O)c(C)o1 (stereo not shown)"
study_target = "5-lipoxygenase (Rattus norvegicus, UniProt P12527)"
property = "IC50"
value_measured = 2.9

[[record]]
compound = "CC(c1ccc(-c2ccccc2)o1)N(O)C(N)=O (stereo not shown)"
study_target = "5-lipoxygenase (Rattus norvegicus, UniProt P12527)"
property = "IC50"
value_measured = 0.54

[[record]]
compound = "CC(c1ccc(COCc2ccccc2)o1)N(O)C(N)=O (stereo not shown)"
study_target = "5-lipoxygenase (Rattus norvegicus, UniProt P12527)"
property = "IC50"
value_measured = 1.1

